Attribution: BindingDB's records for doi:10.3109/14756366.2012.663363

Please provide measured pIC50 for the entries that follow.
biological target: Carboxylic ester hydrolase (Equus caballus, UniProt Q9N1N9)
Sequence (Q9N1N9 whole entry): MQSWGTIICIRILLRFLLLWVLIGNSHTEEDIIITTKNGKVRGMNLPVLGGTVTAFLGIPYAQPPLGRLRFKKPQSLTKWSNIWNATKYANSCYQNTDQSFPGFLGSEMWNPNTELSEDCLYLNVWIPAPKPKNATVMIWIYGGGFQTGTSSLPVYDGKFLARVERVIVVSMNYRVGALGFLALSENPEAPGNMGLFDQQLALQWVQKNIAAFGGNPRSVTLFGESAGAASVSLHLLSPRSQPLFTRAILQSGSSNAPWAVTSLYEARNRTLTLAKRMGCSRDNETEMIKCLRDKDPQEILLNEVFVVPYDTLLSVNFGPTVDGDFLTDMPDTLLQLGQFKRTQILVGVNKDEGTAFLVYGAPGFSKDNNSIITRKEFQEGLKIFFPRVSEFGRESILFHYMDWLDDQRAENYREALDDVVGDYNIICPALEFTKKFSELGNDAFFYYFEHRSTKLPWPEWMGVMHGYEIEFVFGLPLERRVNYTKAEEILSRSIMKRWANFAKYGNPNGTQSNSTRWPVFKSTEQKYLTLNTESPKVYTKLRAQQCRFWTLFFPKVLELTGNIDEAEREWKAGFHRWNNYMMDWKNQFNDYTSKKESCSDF
Remember, pIC50 is on a log scale: it is -log10 of the molar concentration.

Input O=C(CN1CCCCC1)Nc1ccc2nc(-c3cc4ccccc4[nH]3)[nH]c(=O)c2c1 , output reported pIC50.
4.99

Input O=C(CN1CCOCC1)Nc1ccc2nc(-c3cc4ccccc4[nH]3)[nH]c(=O)c2c1 , output reported pIC50.
4.49

Input CCN(CC)CCC(=O)Nc1ccc2nc(-c3cc4ccccc4[nH]3)[nH]c(=O)c2c1 , output reported pIC50.
5.61

Input O=C(CN1CCCC1)Nc1ccc2nc(-c3cc4ccccc4[nH]3)[nH]c(=O)c2c1 , output reported pIC50.
5.51

Input O=C(CCN1CCCCC1)Nc1ccc2nc(-c3cc4ccccc4[nH]3)[nH]c(=O)c2c1 , output reported pIC50.
5.14

Input CCN(CC)CC(=O)Nc1ccc2nc(-c3cc4ccccc4[nH]3)[nH]c(=O)c2c1 , output reported pIC50.
4.83

Input O=C(CCN1CCOCC1)Nc1ccc2nc(-c3cc4ccccc4[nH]3)[nH]c(=O)c2c1 , output reported pIC50.
4.29

Input O=C(CCN1CCCC1)Nc1ccc2nc(-c3cc4ccccc4[nH]3)[nH]c(=O)c2c1 , output reported pIC50.
6.39

----------
Below are IC50 values recorded for Acetylcholinesterase (Electrophorus electricus, UniProt O42275).
Please reply with the bare figure in nM and do not write the unit itself.

Look up and report IC50, with Acetylcholinesterase (Electrophorus electricus, UniProt O42275) as system, for O=C(CCN1CCCC1)Nc1ccc2nc(-c3cc4ccccc4[nH]3)[nH]c(=O)c2c1
Sequence (O42275 whole entry): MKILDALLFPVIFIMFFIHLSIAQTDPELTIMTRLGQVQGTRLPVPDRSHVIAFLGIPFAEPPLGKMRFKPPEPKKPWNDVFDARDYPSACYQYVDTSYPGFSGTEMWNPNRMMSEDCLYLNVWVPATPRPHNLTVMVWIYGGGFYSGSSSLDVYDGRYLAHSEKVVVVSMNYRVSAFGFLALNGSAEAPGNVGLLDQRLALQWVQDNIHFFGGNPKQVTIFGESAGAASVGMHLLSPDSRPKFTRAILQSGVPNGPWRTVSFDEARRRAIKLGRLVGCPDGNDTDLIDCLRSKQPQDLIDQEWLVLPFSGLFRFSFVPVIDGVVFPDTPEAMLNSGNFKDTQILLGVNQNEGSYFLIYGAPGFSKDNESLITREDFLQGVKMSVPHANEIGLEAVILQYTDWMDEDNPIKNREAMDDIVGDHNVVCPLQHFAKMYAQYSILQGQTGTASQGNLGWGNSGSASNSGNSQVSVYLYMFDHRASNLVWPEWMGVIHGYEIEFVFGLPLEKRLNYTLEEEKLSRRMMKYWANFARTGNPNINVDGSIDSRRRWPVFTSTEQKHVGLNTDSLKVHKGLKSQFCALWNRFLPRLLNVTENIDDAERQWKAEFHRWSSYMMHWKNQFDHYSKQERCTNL
100

Look up and report IC50, with Acetylcholinesterase (Electrophorus electricus, UniProt O42275) as system, for O=C(CCN1CCOCC1)Nc1ccc2nc(-c3cc4ccccc4[nH]3)[nH]c(=O)c2c1
1260

----------
propertyMeasured: IC50 (nM)
Please reply with the bare figure in nM and do not write the unit itself.

Look up and report IC50, with Acetylcholinesterase (Electrophorus electricus, UniProt O42275) as system, for CCN(CC)CC(=O)Nc1ccc2nc(-c3cc4ccccc4[nH]3)[nH]c(=O)c2c1
503

Look up and report IC50, with Acetylcholinesterase (Electrophorus electricus, UniProt O42275) as system, for O=C(CCN1CCCCC1)Nc1ccc2nc(-c3cc4ccccc4[nH]3)[nH]c(=O)c2c1
21

Look up and report IC50, with Acetylcholinesterase (Electrophorus electricus, UniProt O42275) as system, for O=C(CN1CCCC1)Nc1ccc2nc(-c3cc4ccccc4[nH]3)[nH]c(=O)c2c1
327

Look up and report IC50, with Acetylcholinesterase (Electrophorus electricus, UniProt O42275) as system, for O=C(CN1CCOCC1)Nc1ccc2nc(-c3cc4ccccc4[nH]3)[nH]c(=O)c2c1
2020

Look up and report IC50, with Acetylcholinesterase (Electrophorus electricus, UniProt O42275) as system, for O=C(CN1CCCCC1)Nc1ccc2nc(-c3cc4ccccc4[nH]3)[nH]c(=O)c2c1
148

----------
target: Acetylcholinesterase (Electrophorus electricus)
pIC50: −log10 of the molar value.
Please provide measured pIC50 for the entries that follow.

Input CN1CCN(CCC(=O)Nc2ccc3nc(-c4cc5ccccc5[nH]4)[nH]c(=O)c3c2)CC1 , output reported pIC50.
< 5.00

Input CN1CCN(CC(=O)Nc2ccc3nc(-c4cc5ccccc5[nH]4)[nH]c(=O)c3c2)CC1 , output reported pIC50.
< 5.00

Input CCN(CC)CCC(=O)Nc1ccc2nc(-c3cc4ccccc4[nH]3)[nH]c(=O)c2c1 , output reported pIC50.
6.56
